- TARGET SYSTEM: RSV postfusion F (postF), F deltaFP (respiratory syncytial virus, UniProt P03420 26-513)
- TEST NAME: BLI, IgG on sensor, 100 nM antigen
PARAMETER MEASURED: Kd (nM)
Answers are plain numbers, in nM.

INSERT INTO measurements (binder, parameter_measured, units, reading) VALUES
  ('ADI-41360 (antibody, V domains shown, IgG1; also called Ab 657) VH: EVQLVESGGGLVQPGGSLRLSCAASGLTFSRYSMNWVRQAPGKGLEWVSYISSTGRRIQYADSVKGRFTISRDDGKNSLYLQMNSLRAEDTAVYYCARDPLNYHDNTAYWSYWGQGTLVTVSS VL: NFMLTQPHSVSESPGKTVTISCTRSSGSIASNYVQWYQQRPGSAPTTVIYEDNQRPSGVPDRFSGSIDSSSNSASLTISGLKTEDEADYYCQSYDSSNPLVFGGGTKLTVL', 'Kd', 'nM', 0.358),
  ('ADI-41354 (antibody, V domains shown, IgG1; also called Ab 651) VH: EVQLLESGGGLVQPGGSLRLSCAASGFTFSSYAMSWVRQAPGKGLEWVSGISGSGGTTYYADSVKGRFTISRDNSKNTLYLQMNSLRAEDTAVYYCAKDSPVNINCGGDCDVAYWGQGTLVTVSS VL: EIVMTQSPSSLSASVGDTVTITCQASQDISYSLNWYQQKPGKAPNLLIFDASHLQTGVPSRFSGGGDGKHFSFTISSLQPEDVATYYCQQYDSLMYTFGQGTKVEIK', 'Kd', 'nM', 0.429),
  ('ADI-41368 (antibody, V domains shown, IgG1; also called Ab 665) VH: EVQLVESGGGVVQPGRSLRLSCAASGFIFRNYGMHWVRQAPGKGLEWVAGTSFEGRNKDYGHSVKGRFTISRDNSKDTLYLQMNSLRPEDTAVYSCAKGSSLQWSHLDWYFDLWGRGTLVTVSS VL: DIVMTQSPSTLSASVGDRVTITCRASQSFSSWLAWYQQKPGKAPNLLIYDASTLESGVPSRFSGSGSGTEFTLTISSLQPDDFATYYCQQERTFGQGTKVEIK', 'Kd', 'nM', 0.878),
  ('ADI-41418 (antibody, V domains shown, IgG1) VH: EVQLVESGGGLVKPGGSLRLSCAASGLSFTDAWMGWVRQAPGKGLEWVGHIKKKTDYGPTAYAAPVRGRFTVSRDDSKNTLYLQMTSLKTEDTAVYYCITERGYNFGYNDYFGVDVWGQGTLVTVSS VL: QPGLTQPPSVSVSPGQTARITCSGDALPKKYAYWYQQKSGQAPVMIIYEDNKRPSGIPERFSGSTSGTMATLTISGAQMEDEADYYCFSTDSGDDQSGVFGGGTRLTVL', 'Kd', 'nM', 0.341),
  ('ADI-41443 (antibody, V domains shown, IgG1; also called Ab 727) VH: EVQLVESGGGVVQPGKSLRLSCAASGFTFSSYAMHWVRQAPGKGLEWVSVIWYEDSDKYYGDSVKGRFTISRDNSKNTLYLQMNSLRAEDTAVYYCARKSGGFGGLDYWGQGTLVTVSS VL: DIVMTQSPLSLPVTPGEPASISCKSSQSLLTANGYNYLDWYVQKPGQSPHVLISLGSNRASGVPDRFSGSGSGTDFTLKISRVEAEDVGVYYCMQAIETPITFGQGTRLEIK', 'Kd', 'nM', 0.373),
  ('ADI-41440 (antibody, V domains shown, IgG1; also called Ab 724) VH: EVQLVESGGGLVKPGGSLRLSCAVSGFTFSDYTMNWVRQAPGKGLEWVSSISGSGTYIYYGDSVKGQFTISRDNAKNSLYLQMNSLRAEDTAVYYCARELPAKTIFGVDFLGGTTAYDCWGQGTPVTVSS VL: EIVLTQSPATLSVSPGERATLSCRASQSVSSNLAWYQQKPGQAPRLLIYSATTRATGVPARFSGSGSGTEFTLTISSLRSEDFAVYYCQQYNNGGTFGPGTKVEIK', 'Kd', 'nM', 1.23),
  ('ADI-41415 (antibody, V domains shown, IgG1) VH: QVTLKESGPALVKPTQTLTLTCTFSGFSLSTSRTRVSWIRQPPGKALEWLARVDWDDDKFYNPVLKTRLSISKDPSKNQVVLTMTNVDPVDTATYYCVRMAHYGSGGYYVEYFQDWGQGTLVTVSS VL: DIQLTQSPASLSASAGDRVTITCRASQNINRYLNWYQQQSGKAPKLLIYAASILQSGVPSRFSGSGSGTDFTLTITSLQPEDFAIYYCQQSYTTPKYTFGQGTKVEIK', 'Kd', 'nM', 0.644),
  ('ADI-41389 (antibody, V domains shown, IgG1; also called Ab 683) VH: EVQLVESGGGVVQPGRSLRLSCAASGFTFSNYAIHWVRQAPGKGLEWVAAISYDGGNKFYADSVKGRFTISRDNSRNTLYLQMNSLRPEDTAVYYCARDRWELNYGIDVWGQGTTVTVSS VL: SYELMQPPSVSVSPGQTARITCSGDALPKQYAYWYQQKPGQAPVLVIYKDSERPSGIPERFSGSTSGTTVTLTISGVQAEDEADYYCQSADSSSTFFYVFGTGTKLTVL', 'Kd', 'nM', 0.513),
  ('ADI-41427 (antibody, V domains shown, IgG1) VH: QVQLVESGPGLVKPSETLSLTCTVSGGSIGGYYWSWIRQPPGKGLEWIGYMYYSGSTNYNPSLKSRVTMSVDTSKNQFSLKLTSVTAADTAVYYCARVLRFLVGGMDVWGQGTTVTVSS VL: QSVLIQPASVSGSPGQSITISCTGTSSDVGGYNYVSWYQQHPGKAPKLIIYEVSNRPSGVSNRFSGSKSGNTASLTISGLQAEDEADYYCNSYTTIATLVFGTGTKVTVL', 'Kd', 'nM', 0.917);

Q: Look at this binder and give its reported Kd. ADI-41366 (antibody, V domains shown, IgG1) VH: QVQLVQSGAEVKKPGESLKISCKASGYSSTTYWIGWVRQISGKGLEWMGIIYPGDSDTRYSPSFQGQVTISADRSTKTAYLQWSSLKASDTAMYYCGTSGFGVATPFDYWGQGTLVTVSS VL: NFMLTQPHSVSESPGKTVTISCTRTSGSIAGNYVHWYQQRPGSAPTTVIYEDNQRPSGVPDRFSGSIDRSSNSASLTISGLKTEDEADYYCQSYASGIHGVFGGGTKVTVL
Result: 0.278
